# assay.explanation: Example 3: plasma pharmacokinetics of two sequential doses
# Assay type: in vivo, human
# condition.parameters: male, human, po, 2400 mg, healthy males, 2400 mg oral, second dose, Day 3, N 11, read-out: AUC(0-48), Mean
observable: AUC (µg·h/mL)

INSERT INTO assay_data (compound, observable, experimental_result) VALUES
  ('CC(C)(C[C@H](N)C(=O)O)C(F)F [Compound A]', 'AUC', 436);

###

# assay.explanation: Example 3: plasma pharmacokinetics of two sequential doses
# Format: in vivo, human
# condition.parameters: male, human, po, 2400 mg, healthy males, 2400 mg oral, Day 1, N 11, read-out: AUClast, Geometric mean
observable: AUC(0-t) (µg·h/mL)

INSERT INTO results (compound, experimental_result) VALUES
  ('CC(C)(C[C@H](N)C(=O)O)C(F)F [Compound A]', 405);

###

# assay.explanation: Example 3: plasma pharmacokinetics of two sequential doses
# Type: in vivo, human
# condition.parameters: male, human, po, 2400 mg, healthy males, 2400 mg oral, Day 1, N 11, read-out: AUC(0-24), Median
observable: AUC (µg·h/mL)

INSERT INTO results (smiles_notation, measure_unit, experimental_result) VALUES
  ('CC(C)(C[C@H](N)C(=O)O)C(F)F', 'µg·h/mL', 366);

###

# assay.explanation: Example 3: plasma pharmacokinetics of two sequential doses
# Type: in vivo, human
# condition.parameters: male, human, po, 2400 mg, healthy males, 2400 mg oral, second dose, Day 3, N 11, read-out: Tmax, Median
observable: Tmax (min)

INSERT INTO results (smiles_notation, observable, measure_unit, experimental_result) VALUES
  ('CC(C)(C[C@H](N)C(=O)O)C(F)F', 'Tmax', 'min', 30);

###

# assay.explanation: Example 3: plasma pharmacokinetics of two sequential doses
# Assay type: in vivo, human
# condition.parameters: male, human, po, 2400 mg, healthy males, 2400 mg oral, Day 1, N 11, read-out: T1/2, Mean (converted)
observable: half-life (h)

INSERT INTO measurements (smiles_notation, observable, measure_unit, experimental_result) VALUES
  ('CC(C)(C[C@H](N)C(=O)O)C(F)F', 'half-life', 'h', 12.2);

###

# assay.explanation: Example 3: plasma pharmacokinetics of two sequential doses
# Format: in vivo, human
# condition.parameters: male, human, oral, 2400 mg, all subjects, both dosing days (Days 1 and 3), read-out: individual Tmax values
observable: Tmax

INSERT INTO measurements (smiles_notation, observable, experimental_result) VALUES
  ('CC(C)(C[C@H](N)C(=O)O)C(F)F', 'Tmax', '30 to 60 min');

###

# assay.explanation: Example 3: plasma pharmacokinetics of two sequential doses
# Type: in vivo, human
# condition.parameters: male, human, po, 2400 mg, healthy males, 2400 mg oral, second dose, Day 3, N 11, read-out: Cmax, Median
observable: Cmax (ng/mL)

INSERT INTO assay_data (molecule, measure_unit, experimental_result) VALUES
  ('CC(C)(C[C@H](N)C(=O)O)C(F)F [Compound A]', 'ng/mL', 47400);

###

# assay.explanation: Example 3: plasma pharmacokinetics of two sequential doses
# Type: in vivo, human
# condition.parameters: male, human, po, 2400 mg, healthy males, 2400 mg oral, second dose, Day 3, N 11, read-out: Cmax, Geometric mean
observable: Cmax (ng/mL)

INSERT INTO assay_data (smiles_notation, experimental_result) VALUES
  ('CC(C)(C[C@H](N)C(=O)O)C(F)F', 45300);
